# measured_target: human muscarinic M1 receptor (Homo sapiens)
# method: Alphascreen Surefire phospho-ERK1/2 functional assay, M1
# Assay type: cell-based
# recorded_conditions: CHO cells stably expressing human M1; agonist 5 min, 37° C.; read-out: pEC50 M1 (converted)
endpoint_label: EC50 (nM)

Some solved entries appear below for comparison.
# molecule, endpoint_label, units, experimental_value
measured = [
    ("CCOC(=O)N1CCC2(CC(N3CC(OC(=O)N4CCCOCC4)C3)C2)C1 (single isomer, unassigned) [Example 4-3 Isomer 2]", "EC50", "nM", 372),
    ("CCOC(=O)N1C2CCC1CC(N1CC(CC(=O)N(CC)C(C)C)C1)C2 (mixture of isomers) [Example 1-2 Isomer mixture]", "EC50", "nM", 182),
    ("CCOC(=O)N1CC2(CCC(N3CC(OC(=O)N4CCCC4)C3)C2)C1 (single isomer, unassigned) [Example 4-7 Isomer 1]", "EC50", "nM", 75.9),
]

[P] CCOC(=O)N1CC2(CCC(N3CC(OC(=O)N(CC)CC)C3)C2)C1 (single isomer, unassigned) [Example 4-5 Isomer 1]
[Q] CCN(CC)C(=O)OC1CN(C2CCC3(C2)CN(C(=O)OC)C3)C1 (single isomer, unassigned) [Example 4-6 Isomer 2]
[R] CCOC(=O)N1CC2CCC1CC2N1CC(OC(=O)N2CCCCCC2)C1 (single isomer, unassigned) [Example 6-4 Isomer 1]
query: Order the records by EC50, with each subsequent value no larger than the one before. State the ranking by listing the labels in the requested order.
result: Q, R, P
(Q: 214 nM, R: 117 nM, P: 15.8 nM)

###

# measured_target: human muscarinic M1 receptor (Homo sapiens, UniProt P11229)
# Sequence (P11229 1-460): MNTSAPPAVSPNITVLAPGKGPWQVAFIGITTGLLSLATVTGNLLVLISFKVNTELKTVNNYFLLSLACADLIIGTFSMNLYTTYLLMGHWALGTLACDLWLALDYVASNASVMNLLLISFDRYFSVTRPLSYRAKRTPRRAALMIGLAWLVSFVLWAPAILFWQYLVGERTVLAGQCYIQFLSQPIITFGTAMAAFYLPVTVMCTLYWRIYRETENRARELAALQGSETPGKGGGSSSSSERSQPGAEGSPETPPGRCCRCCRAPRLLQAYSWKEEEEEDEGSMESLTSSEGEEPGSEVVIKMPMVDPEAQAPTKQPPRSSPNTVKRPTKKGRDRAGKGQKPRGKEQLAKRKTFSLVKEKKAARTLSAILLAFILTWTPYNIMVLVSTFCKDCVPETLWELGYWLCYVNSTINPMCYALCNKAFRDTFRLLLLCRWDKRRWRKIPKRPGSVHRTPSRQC
# method: Alphascreen Surefire phospho-ERK1/2 functional assay, M1
# Assay type: cell-based
# recorded_conditions: pEC50 M1, CHO cells stably expressing human M1; agonist 5 min, 37° C.
# Protocol: ERK1/2 phosphorylation is a downstream consequence of both Gq/11 and Gi/o protein coupled receptor activation, making it highly suitable for the assessment of M1, M3 (Gq/11 coupled) and M2, M4 receptors (Gi/o coupled), rather than using different assay formats for different receptor subtypes. CHO cells stably expressing the human muscarinic M1, M2, M3 or M4 receptor were plated (25K/well) onto 96-well tissue culture plates in MEM-alpha+10% dialysed FBS. […]
endpoint_label: EC50 (µM)
A number alone suffices; assume µM.

# compound, EC50 [µM]
records = [
    ("CCOC(=O)N1C2CCC1CC(N1CC(OC(=O)N3CCCCCC3)C1)C2 (mixture of isomers) [Example 5-1 Isomer mixture]", 0.0891),
]

Now examine the next entry.
query: Could you share which EC50 value was measured for CCOC(=O)N1C2CCCC1CC(N1CC(OC(=O)N(CC)CC)C1)C2 (single isomer, unassigned) [Example 7-1 Isomer 1] ?
result: 1.29

###

Emax values by entry
# measured_target: human muscarinic M4 receptor (Homo sapiens, UniProt P08173)
# Construct: expressed in transfected cells
# method: Alphascreen Surefire phospho-ERK1/2 functional assay, M4
# Assay type: cell-based
# recorded_conditions: CHO, read-out: % Emax cf. ACh, M4
A number alone suffices; assume %.

Some solved entries appear below for comparison.
# molecule, units, Emax
records = [
    ("CCOC(=O)N1C2CCCC1CC(N1CC(CC(=O)N3CCCC3)C1)C2 (single isomer, unassigned) [Example 3-2 Isomer 1]", "%", 68),
    ("CCOC(=O)N1C2CCC1CC(N1CC(CC(=O)N(CC)C(C)C)C1)C2 (mixture of isomers) [Example 1-2 Isomer mixture]", "%", 7),
]

Now examine the next entry.
query: Could you share which Emax value was measured for CCOC(=O)N1C2CCC1CC(N1CC(CC(=O)N3CCCCC3)C1)C2 (mixture of isomers) [Example 1-4 Isomer mixture] ?
result: 17

###

# measured_target: human muscarinic M4 receptor (Homo sapiens, UniProt P08173)
# Construct: expressed in transfected cells
# Sequence (P08173 1-479): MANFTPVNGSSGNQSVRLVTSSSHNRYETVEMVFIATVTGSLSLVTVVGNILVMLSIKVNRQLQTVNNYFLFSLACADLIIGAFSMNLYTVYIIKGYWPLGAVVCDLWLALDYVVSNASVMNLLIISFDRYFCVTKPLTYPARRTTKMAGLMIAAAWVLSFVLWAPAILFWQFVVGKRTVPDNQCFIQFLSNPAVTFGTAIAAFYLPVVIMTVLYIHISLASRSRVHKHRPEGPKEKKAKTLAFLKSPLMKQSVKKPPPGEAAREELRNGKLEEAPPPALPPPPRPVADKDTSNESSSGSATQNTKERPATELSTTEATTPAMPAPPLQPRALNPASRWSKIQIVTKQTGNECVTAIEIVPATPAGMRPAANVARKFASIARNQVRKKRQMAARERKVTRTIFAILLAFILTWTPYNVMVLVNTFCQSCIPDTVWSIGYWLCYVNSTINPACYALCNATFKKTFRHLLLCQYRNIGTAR
# method: Alphascreen Surefire phospho-ERK1/2 functional assay, M4
# Type: cell-based
# recorded_conditions: CHO, read-out: % Emax cf. ACh, M4, CHO cells stably expressing human M4; Emax relative to ACh
endpoint_label: Emax (%)

# compound, experimental_value
rows = [
    ("CCOC(=O)N1CC2CCC1CC2N1CC(CC(=O)N2CCCCC2)C1 (single isomer, unassigned) [Example 2-3 Isomer 1]", 46),
    ("CCOC(=O)N1CC2CCC1CC2N1CC(OC(=O)N2CCCCCC2)C1 (single isomer, unassigned) [Example 6-4 Isomer 1]", 50),
    ("CCOC(=O)N1CC2CCC1CC2N1CC(OC(=O)N2CCCC2)C1 (single isomer, unassigned) [Example 6-2 Isomer 1]", 55),
]

###

# measured_target: UniProt:P11229
# Sequence (P11229 1-460): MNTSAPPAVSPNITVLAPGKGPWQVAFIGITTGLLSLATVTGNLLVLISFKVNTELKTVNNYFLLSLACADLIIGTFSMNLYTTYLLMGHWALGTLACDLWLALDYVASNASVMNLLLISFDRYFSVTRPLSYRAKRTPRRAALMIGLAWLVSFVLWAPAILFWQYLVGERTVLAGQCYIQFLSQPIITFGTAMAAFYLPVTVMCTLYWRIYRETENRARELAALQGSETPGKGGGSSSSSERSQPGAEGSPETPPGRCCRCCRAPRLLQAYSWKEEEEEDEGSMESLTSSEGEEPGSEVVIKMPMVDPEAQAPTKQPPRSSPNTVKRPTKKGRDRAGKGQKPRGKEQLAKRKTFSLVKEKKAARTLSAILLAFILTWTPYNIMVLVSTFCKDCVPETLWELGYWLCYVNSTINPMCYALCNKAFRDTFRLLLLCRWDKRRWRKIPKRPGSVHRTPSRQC
# method: Alphascreen Surefire phospho-ERK1/2 functional assay, M1
# Assay type: cell-based
# recorded_conditions: CHO, read-out: % Emax cf. ACh, M1, CHO cells stably expressing human M1; Emax relative to ACh
endpoint_label: Emax (%)

# molecule, experimental_value
records = [
    ("CCOC(=O)N1CC2(CCC(N3CC(OC(=O)N(C)CC)C3)C2)C1 (single isomer, unassigned) [Example 4-4 Isomer 1]", 67),
    ("CCOC(=O)N1CC2CCC1CC2N1CC(OC(=O)N2CCCC2)C1 (single isomer, unassigned) [Example 6-2 Isomer 1]", 83),
    ("CCOC(=O)N1CC2(CCC(N3CC(OC(=O)N4CCOCC4)C3)C2)C1 (single isomer, unassigned) [Example 4-8 Isomer 1]", 72),
]

###

# measured_target: human muscarinic M4 receptor (Homo sapiens, UniProt P08173)
# Construct: expressed in transfected cells
# method: Alphascreen Surefire phospho-ERK1/2 functional assay, M4
# Type: cell-based
# recorded_conditions: CHO cells stably expressing human M4; agonist 5 min, 37° C.; read-out: pEC50 M4 (converted)
endpoint_label: EC50 (µM)

# molecule, EC50 [µM]
records = [
    ("CCOC(=O)N1C2CCCC1CC(N1CC(CC(=O)N3CCCCC3)C1)C2 (single isomer, unassigned) [Example 3-3 Isomer 1]", 1.29),
    ("CCOC(=O)N1C2COCC1CC(N1CC(OC(=O)N3CCCCCC3)C1)C2 (single isomer, unassigned) [Example 8-1 Isomer 1]", 1.86),
]

[a] CCOC(=O)N1CCC2(CC(N3CC(OC(=O)N(CC)CC)C3)C2)C1 (single isomer, unassigned) [Example 4-2 Isomer 2]
[b] CCOC(=O)N1CC2(CCC(N3CC(OC(=O)N(CC)CC)C3)C2)C1 (single isomer, unassigned) [Example 4-5 Isomer 1]
query: Which value of EC50 is smaller, the one for a or the one for b ? Pick one; state its label.
result: b
(b: 0.0331 µM, a: 0.282 µM)
